Target: Cytochrome P450 3A4 (Homo sapiens) (UniProt P08684)
Sequence (P08684 whole entry, looked up): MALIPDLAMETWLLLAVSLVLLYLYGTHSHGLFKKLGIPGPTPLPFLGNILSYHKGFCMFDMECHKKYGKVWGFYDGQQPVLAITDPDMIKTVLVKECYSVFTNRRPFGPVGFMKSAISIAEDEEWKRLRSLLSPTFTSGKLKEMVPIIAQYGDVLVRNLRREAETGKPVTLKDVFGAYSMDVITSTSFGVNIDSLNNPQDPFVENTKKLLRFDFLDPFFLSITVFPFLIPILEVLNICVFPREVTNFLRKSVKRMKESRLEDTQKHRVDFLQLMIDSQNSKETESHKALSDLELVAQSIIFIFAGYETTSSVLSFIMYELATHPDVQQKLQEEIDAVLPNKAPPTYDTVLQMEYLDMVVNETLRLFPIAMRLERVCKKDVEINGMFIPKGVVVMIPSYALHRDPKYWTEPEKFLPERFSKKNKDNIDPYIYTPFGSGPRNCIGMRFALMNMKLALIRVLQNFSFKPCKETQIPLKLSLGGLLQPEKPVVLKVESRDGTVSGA
Test: Cytochrome P450 Family 3 Subfamily A Member 4 (CYP3A4) small molecule antagonists: luciferase reporter qHTS assay (AID 1671201); note: nearly all actives have a fitted effect of over 50% in size
Settings: P450-Glo CYP3A4 enzyme, luciferin luminescence, 1 h; series mostly up to 115 µM
Records with an inconclusive call do not appear. The source made the active and inactive calls. Calls come from the whole dose curve; as a rule, active = well fitted inhibition curve with a large enough effect in the repeat runs; inconclusive = weak or mixed curves; inactive = no such curve, though single readings can be large or run the other way.
Labels: TRUE = active, FALSE = inactive

* CC1COC(=O)O1 (stereo not drawn) | FALSE
* C=CC(=O)OCCCCCCOC(=O)C=C | TRUE
* Cc1occc(=O)c1OC(=O)C(C)C | FALSE
* CC(C)CCOC(=O)c1ccc(N(C)C)cc1 | FALSE
* Oc1c(Cl)cc(Cl)cc1Sc1cc(Cl)cc(Cl)c1O | FALSE
* CCC[C@H](N[C@@H](C)C(=O)N1[C@H](C(=O)O)C[C@@H]2CCCC[C@@H]21)C(=O)OCC | FALSE
* O=C1NCC2(CCN(CCc3ccccc3)CC2)O1 | FALSE
* CC(=O)CC(C)=O | FALSE
* CCN(CC)C(=O)Nc1ccc(OCC(O)CNC(C)(C)C)c(C(C)=O)c1 (stereo not drawn) | FALSE
* O=C(O)Cn1cnnn1 | FALSE
* COc1ccc(Cc2cnc(N)nc2N)cc1OC | FALSE
* C=C(C)C(=O)O | FALSE
* O=C(O)c1cccc(C(=O)O)c1 | FALSE

----------
Experiment: A CellTox Green Cytotoxicity Assay to monitor cytotoxicity in HepG2 cells - 16 hour (AID 1224876); note: nearly all actives have a fitted effect of over 45% in size
Settings: CellTox Green fluorescence; series mostly up to 76.8 µM
Results filed as inconclusive are left out. Calls of active or inactive are those of the source. The call rests on the fitted dose curve; in most records, active means well fitted activation curve with a large enough effect in the repeat runs; inconclusive means weak or mixed curves; inactive means flat fitted curve, though single readings scatter.
Labels: T (active), F (inactive)

- COc1ccc(CCN(C)CCCC(C#N)(c2ccc(OC)c(OC)c2)C(C)C)cc1OC (stereo not given): F
- NNCCc1ccccc1: F
- CC(=O)Nc1ccc(C(=O)CCl)cc1: F
- CCCCCCCCCCCC[N+](C)(C)C: T
- CCOc1ccc2c(c1)C(C)=CC(C)(C)N2: F

----------
Test: qHTS assay to identify small molecule phospholipidosis (PLD) inducers (AID 1259344)
Conditions: HepG2 phospholipidosis, LipidTOX Red imaging, 24 h; series mostly up to 38.3 µM
Records with an inconclusive call do not appear. Calls of active or inactive are those of the source. Calls come from the whole dose curve; as a rule, active = well fitted activation curve with a large enough effect; inconclusive = small, poorly fitted or top-dose-only effect; inactive = flat fitted curve, though single readings scatter.
parameter measured: outcome

- Nc1nc(=S)c2[nH]cnc2[nH]1: inactive
- CC(C)(C)NCC(O)c1cc(O)cc(O)c1 (centres undefined): inactive
- CCC[C@H](N[C@@H](C)C(=O)N1[C@H](C(=O)O)C[C@@H]2CCCC[C@@H]21)C(=O)OCC: inactive
- NCCCCCC(=O)O: inactive

----------
Experiment: qHTS assay to identify small molecule agonists of the TGF-beta/Smad signaling pathway - cell viability counter screen (AID 1346829); note: nearly all actives have a fitted effect of over 45% in size
Settings: SBE-bla HEK293T viability, CellTiter-Glo luminescence, 5 h; series mostly up to 76.8 µM
Results filed as inconclusive are left out. Calls of active or inactive are those of the source. The call rests on the fitted dose curve; in most records, active means well fitted cell-killing curve with a large enough effect in the repeat runs; inconclusive means weak or mixed curves, or effect the other way; inactive means flat fitted curve, though single readings scatter.
Labels: T for active, F for inactive

* CCCN[C@H]1CCc2nc(N)sc2C1 | F
* Cc1cccc2n[nH]nc12 | F
* Cc1cccc([N+](=O)[O-])c1C(=O)O | F
* COc1ccc(COC(C)=O)cc1 | F
* CC1=CC(=O)c2ccccc2C1=O | T
* [Cl][In]([Cl])[Cl] | F
* CC(C)(c1ccccc1)c1ccc(Nc2ccc(C(C)(C)c3ccccc3)cc2)cc1 | F
* O=C(O)c1cc(Cl)cc(Cl)c1 | F
* CCCCCCCCCCCC[N+](C)(C)C | F
* O=C(OCc1ccccc1)c1ccc(O)cc1 | F
* O=C1Nc2ccccc2C1(c1ccc(O)cc1)c1ccc(O)cc1 | F
* COc1ccc(CCN2CCC(Nc3nc4ccccc4n3Cc3ccc(F)cc3)CC2)cc1 | T
* CCCCC(CC)COC(=O)CC(C(=O)OCC(CC)CCCC)S(=O)(=O)O (stereo not given) | F
* O=C(O[C@@H]1Cc2c(O)cc(O)cc2O[C@@H]1c1cc(O)c(O)c(O)c1)c1cc(O)c(O)c(O)c1 | F
* CCC(C)(Oc1ccc(C2(c3ccc(OC(C)(CC)C(=O)O)cc3)CCCCC2)cc1)C(=O)O (stereo not given) | F
* CC(C)(C)NCC(O)c1cc(O)cc(O)c1 (stereo not given) | F
* CC1=C(C=O)C(C)(C)CC=C1 | F
* COc1ccc(CCN(C)CCCC(C#N)(c2ccc(OC)c(OC)c2)C(C)C)cc1OC (stereo not given) | F
* COc1nc(C)nc(Cl)c1NC1=NCCN1 | F
* COC(=O)c1cccc(C(=O)OC)c1 | F
